Molecular target: T1, human TMEM106B (human, UniProt Q9NUM4 2-274)
T1 construct: Full-length, on transiently transfected HEK293 cells, or natively expressed on HeLa, U251 and A549 cells; also called huTMEM106B; huTMEM
Assay: FACS HEK+huTMEM, 0.1 ug/ml;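 note: flow cytometry binding of purified mouse IgG antibodies to HEK293 cells transiently expressing TMEM106B, read as median fluorescence intensity with propidium iodide positive dead cells gated out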
Measured endpoint: MFI
Please reply with the value in numeric form only.

Examples with their reported MFI follow.
# Binder, Measured endpoint, Observed
records = [
    ("anti-TMEM106B antibody TM-1 (antibody, V domains shown) VH: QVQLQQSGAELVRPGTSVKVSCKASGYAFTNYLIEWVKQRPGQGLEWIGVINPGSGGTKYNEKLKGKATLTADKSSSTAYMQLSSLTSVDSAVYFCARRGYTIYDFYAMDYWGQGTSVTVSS VL: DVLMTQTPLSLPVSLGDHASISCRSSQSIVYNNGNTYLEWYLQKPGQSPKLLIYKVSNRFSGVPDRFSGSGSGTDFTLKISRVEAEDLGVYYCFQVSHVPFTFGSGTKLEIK", "MFI", 1330),
    ("anti-TMEM106B antibody TM-8 (antibody, V domains shown, mouse IgG from hybridoma) VH: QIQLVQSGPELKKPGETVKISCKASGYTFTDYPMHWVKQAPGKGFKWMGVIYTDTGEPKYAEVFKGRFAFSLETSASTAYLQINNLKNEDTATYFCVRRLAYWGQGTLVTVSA VL: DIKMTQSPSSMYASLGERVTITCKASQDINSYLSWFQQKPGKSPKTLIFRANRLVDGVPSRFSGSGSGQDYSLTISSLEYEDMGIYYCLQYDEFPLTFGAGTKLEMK", "MFI", 305),
]

Alright, here's another binder for you.
(Q) Specify MFI for anti-TMEM106B antibody TM-12 (antibody, V domains shown) VH: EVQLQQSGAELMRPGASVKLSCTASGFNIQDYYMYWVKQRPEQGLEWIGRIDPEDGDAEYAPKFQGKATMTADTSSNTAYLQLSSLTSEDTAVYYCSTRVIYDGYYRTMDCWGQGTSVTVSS VL: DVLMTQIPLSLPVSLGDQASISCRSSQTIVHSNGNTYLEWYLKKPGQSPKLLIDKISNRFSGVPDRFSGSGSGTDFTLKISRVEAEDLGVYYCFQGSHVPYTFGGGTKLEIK and stop.
(A) 19700

Reference source: patent US20230303681A1
